Test: NCI Yeast Anticancer Drug Screen. Data for the wt1 strain (AID 149);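 also: 0% = growth of vehicle-treated wt1 cultures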
Details: S. cerevisiae wt1 strain (SPY 50644) growth inhibition; at 33.0 µM; active compounds read high
Procedure: Growth inhibition of yeast strains with defined genetic alterations is measured as a screen for potential anti-cancer activity. Selected strains with alterations in DNA damage repair or cell cycle control were exposed to compounds and growth inhibition was measured relative to vehicle treated controls. The strain used in this assay is wt1
About 79,000 compounds went through this panel and 15% of them were active in at least one assay; those are over-represented in the sample as a whole.
Reported values of growth inhibition for individual entries
Your answer should be a plain number; it is taken to be in %.

Example entries begin here.
O=C(Nc1ccc(Cl)cc1)OCC#CCCl
10
COC1=CC(=O)C2C(C1=O)C(c1ccc(Cl)cc1)[C@@H]2C (some centres undefined)
99
CCCCCCCCCCCC1=C(O)C(=O)C=C(O)C1=O
94
CO[C@H]1C[C@](C)(O)Cc2cc3c(c(O)c21)C(=O)c1c(O)cc2c(c1C3=O)O[C@@H]1O[C@@]2(C)[C@H](O)[C@@H](N(C)C)[C@@H]1O
-44
CN(C)c1nc2sc3c(c2c(=O)o1)CCCC3
8

Prompt: Report growth inhibition for Nc1ccn(C2OC(CO)C3[O][Sn]([c]4ccccc4)([c]4ccccc4)[O]C32)c(=O)n1 (centres undefined) please.
Completion: 9

Prompt: Param item = N#CC(C(=O)Nc1ccccc1)C1=C(Cl)C(=O)c2ccccc2C1=O (centres undefined) ; retrieve measured growth inhibition.
Completion: 97

This collection of values is drawn from PubChem BioAssay (NCI).
